Where do these numbers come from? They come from patent US20260209346A1.

- target_or_test_system: T1, human CD79b recombinant protein (human, UniProt P40259 29-159)
- T1 construct: also called human CD79b ECD antigen; recombinant human CD79b ECD
- T1 sequence: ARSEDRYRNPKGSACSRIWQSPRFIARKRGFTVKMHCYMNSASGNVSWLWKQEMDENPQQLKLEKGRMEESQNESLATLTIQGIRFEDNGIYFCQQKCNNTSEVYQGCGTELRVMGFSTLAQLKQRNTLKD
- test_method_notes: ELISA on recombinant human CD79b ECD; A 450nm
// EC50 (read off the curve) lookup, one value per entry

// below: answered binders
binder	EC50 (read off the curve)
ch23D8 (antibody, human IgG1, kappa, V domains shown, Rabbit/human chimeric IgG1 kappa; also called chimeric 23D8) VH: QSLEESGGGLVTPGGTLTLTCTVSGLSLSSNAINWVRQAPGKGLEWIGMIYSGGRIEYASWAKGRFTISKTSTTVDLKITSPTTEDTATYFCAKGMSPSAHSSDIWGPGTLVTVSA VL: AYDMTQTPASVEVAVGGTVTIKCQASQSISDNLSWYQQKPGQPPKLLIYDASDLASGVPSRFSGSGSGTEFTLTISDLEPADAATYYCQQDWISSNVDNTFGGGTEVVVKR	~0.1 nM
hu48H10 (antibody, V domains shown, Humanized antibody; also called humanized 48H10) VH: EQQLVETGGGLIQPGGSLRLSCAASGFTINIDYWISWVRQAPGKGLEWIGIIDPGDGTTYFAIWVSGRFTISTDNSKNTVYLQMNSLRAEDTAVYFCAREFSASAYQYDLWGPGTLVTVSS VL: ELVMTQSPATLSVSPGERATLSCQASEDIESYLTWYQQKPGQPPRLLMYRASTLSSGVPARFSASGSGTEFTLTISSLQSEDFAVYYCQQGYRNKDVDNPFGGGTKVEIK	~0.1 nM

Could you now consider this next binder?
Q) Look up EC50 (read off the curve) for this binder: hu57B9 (antibody, V domains shown, Humanized antibody; also called humanized 57B9) VH: EQQLVETGGGLIQPGGSLRLSCAASEFTINIDYWISWVRQAPGKGLEWIGIIDPGDGTTYFAIWVSGRFTISRDTSKNTVYLQMNSLRAEDTAVYFCAREVSASAYQYDLWGPGTLVTVSS VL: ELVMTQSPATLSVSPGERATLSCQASEDIESYLAWYQQKPGQPPRLLIYFTSNLASGVPARFSGSGSGTEYTLTISSLQSEDFAVYYCQQGYRNSDVHNPFGGGTKVEIK
A) ~0.08 nM
